- Method notes: Plasma drug concentrations and pharmacokinetics after a single subcutaneous injection of SP peptide or SIPI-D00 peptide in SD rats
- Assay type: in vivo
- Cond: male, SD, rat, plasma, sc, 5 mg/kg, SIPI-D00 5 mg/kg s.c., SD rats, time 3 h, parallels 1-4; read-out: Plasma concentration
Square brackets hold non-standard residues; d marks the D form. Peptide text beside a SMILES is read from it.
Readout name: level at 3 h (µg/mL)

Compound	Quantitative result
C[C@H](O)[C@@H](NC(=O)[C@@H](Cc1ccc(O)cc1)NC(=O)[C@H](NC(=O)[C@@H](CO)NC(=O)CN)[C@H](C)O)C(=O)N[C@H](CCC(N)=O)C(=O)NCC(=O)O [SIPI-D00, GSTYTQG] (H-G[dS][dT][dY][dT][dQ]G-OH)	0.291

====

- Method notes: in vivo
- Cond: rat, in vivo, iv, 1 mg/kg, Tmax
Peptide text beside a SMILES is read from it. * marks the point of attachment. X1 = CC(=O)N[C@H]1C(*)O[C@H](CO)[C@@H](O)[C@@H]1O
Readout name: Tmax (min)

Compound	Readout name	Measurement unit	Quantitative result
CC(=O)N[C@H]1C(OC[C@H](NC(=O)[C@@H](NC(=O)[C@H](Cc2ccc(O)cc2)NC(=O)[C@@H](NC(=O)[C@H](CCC(N)=O)NC(=O)CN)[C@@H](C)OC2O[C@H](CO)[C@@H](O)[C@H](O)[C@H]2NC(C)=O)[C@@H](C)O)C(=O)NCC(=O)O)O[C@H](CO)[C@@H](O)[C@@H]1O (stereo partly shown) [SIPI-G9, GQT(Glc)YTS(Glc)G] (H-GQT(X1)YTS(X1)G-OH)	Tmax	min	3

====

- Method notes: Plasma drug concentrations and pharmacokinetics after a single subcutaneous injection of SP peptide or SIPI-D00 peptide in SD rats
- Type: in vivo
- Cond: male, SD, rat, plasma, sc, 5 mg/kg, SIPI-D00 5 mg/kg s.c., SD rats, time 6 h, parallels 1-4; read-out: Plasma concentration
Square brackets hold non-standard residues; d marks the D form. Peptide text beside a SMILES is read from it.
Readout name: level at 6 h

Compound	Result
C[C@H](O)[C@@H](NC(=O)[C@@H](Cc1ccc(O)cc1)NC(=O)[C@H](NC(=O)[C@@H](CO)NC(=O)CN)[C@H](C)O)C(=O)N[C@H](CCC(N)=O)C(=O)NCC(=O)O [SIPI-D00, GSTYTQG] (H-G[dS][dT][dY][dT][dQ]G-OH)	3.51 ng/mL

====

- Method notes: Plasma drug concentrations and pharmacokinetics after a single subcutaneous injection of SP peptide or SIPI-D00 peptide in SD rats
- Format: in vivo
- Cond: male, SD, rat, plasma, sc, 5 mg/kg, SIPI-D00 5 mg/kg s.c., SD rats, time 0.167 h, parallels 1-4; read-out: Plasma concentration
Square brackets hold non-standard residues; d marks the D form. Peptide text beside a SMILES is read from it.
Readout name: level at 0.167 h (ng/mL)

Compound	Quantitative result
C[C@H](O)[C@@H](NC(=O)[C@@H](Cc1ccc(O)cc1)NC(=O)[C@H](NC(=O)[C@@H](CO)NC(=O)CN)[C@H](C)O)C(=O)N[C@H](CCC(N)=O)C(=O)NCC(=O)O [SIPI-D00, GSTYTQG] (H-G[dS][dT][dY][dT][dQ]G-OH)	4720

====

- Method notes: Plasma drug concentrations and pharmacokinetics after a single subcutaneous injection of SP peptide or SIPI-D00 peptide in SD rats
- Type: in vivo
- Cond: male, SD, rat, plasma, sc, 5 mg/kg, SIPI-D00 5 mg/kg s.c., SD rats, time 0.333 h, parallels 1-4; read-out: Plasma concentration
- Description: Route: Single back subcutaneous injection; Dosage of the drug: SP peptide and SIPI-D00 peptide were prepared into 3.33 mg/mL solution with normal saline, the dosage of SP peptide by back subcutaneous injection was 10 mg/kg body weight, and the dosage of SIPI-D00 peptide by back subcutaneous injection was 5 mg/kg body weight. […]
Square brackets hold non-standard residues; d marks the D form. Peptide text beside a SMILES is read from it.

Compound	level at 0.333 h, ng/mL
C[C@H](O)[C@@H](NC(=O)[C@@H](Cc1ccc(O)cc1)NC(=O)[C@H](NC(=O)[C@@H](CO)NC(=O)CN)[C@H](C)O)C(=O)N[C@H](CCC(N)=O)C(=O)NCC(=O)O [SIPI-D00, GSTYTQG] (H-G[dS][dT][dY][dT][dQ]G-OH)	5890

====

- Method notes: Plasma drug concentrations and pharmacokinetics after a single subcutaneous injection of SP peptide or SIPI-D00 peptide in SD rats
- Type: in vivo
- Cond: rat, in vivo, sc, 10 mg/kg
- Description: Route: Single back subcutaneous injection; Dosage of the drug: SP peptide and SIPI-D00 peptide were prepared into 3.33 mg/mL solution with normal saline, the dosage of SP peptide by back subcutaneous injection was 10 mg/kg body weight, and the dosage of SIPI-D00 peptide by back subcutaneous injection was 5 mg/kg body weight. […]

Substance	Cmax
H-GQTYTSG-OH [SP, GQTYTSG, reference compound]	210 ng/mL

====

- Method notes: Stability of each 7-peptide compound in rat whole blood
- Type: in vitro ADME
- Cond: rat whole blood, 37° C., 1000 ng/mL, incubation time 2 min; read-out: Recovery rate (%) M±SD
Peptide text beside a SMILES is read from it. * marks the point of attachment. X1 = CC(=O)N[C@H]1C(*)O[C@H](CO)[C@@H](O)[C@@H]1O

Compound	recovery, %
CC(=O)N[C@H]1C(O[C@H](C)[C@H](NC(=O)[C@H](CCC(N)=O)NC(=O)CN)C(=O)N[C@@H](Cc2ccc(O)cc2)C(=O)N[C@H](C(=O)N[C@@H](CO)C(=O)NCC(=O)O)[C@@H](C)O)O[C@H](CO)[C@@H](O)[C@@H]1O (stereo partly shown) [SIPI-G6, GQT(Glc)YTSG] (H-GQT(X1)YTSG-OH)	86.1

====

- Method notes: Plasma drug concentrations and pharmacokinetics after a single intravenous or subcutaneous injection of SIPI-G9 in SD rats
- Cond: male, SD, rat, plasma, sc, 5 mg/kg, Plasma G-9 concentration, SIPI-G9 5 mg/kg single subcutaneous injection, SD rats, 3 min, individual rats
Peptide text beside a SMILES is read from it. * marks the point of attachment. X1 = CC(=O)N[C@H]1C(*)O[C@H](CO)[C@@H](O)[C@@H]1O

Compound	Measurement unit	level at 0.05 h
CC(=O)N[C@H]1C(OC[C@H](NC(=O)[C@@H](NC(=O)[C@H](Cc2ccc(O)cc2)NC(=O)[C@@H](NC(=O)[C@H](CCC(N)=O)NC(=O)CN)[C@@H](C)OC2O[C@H](CO)[C@@H](O)[C@H](O)[C@H]2NC(C)=O)[C@@H](C)O)C(=O)NCC(=O)O)O[C@H](CO)[C@@H](O)[C@@H]1O (stereo partly shown) [SIPI-G9, GQT(Glc)YTS(Glc)G] (H-GQT(X1)YTS(X1)G-OH)	ng/mL	758

====

- Method notes: Plasma drug concentrations and pharmacokinetics after a single intravenous or subcutaneous injection of SIPI-G9 in SD rats
- Cond: rat, in vivo, iv, 1 mg/kg, Vd, Mean, SIPI-G9 1 mg/kg i.v., SD rats, n=3
Peptide text beside a SMILES is read from it. * marks the point of attachment. X1 = CC(=O)N[C@H]1C(*)O[C@H](CO)[C@@H](O)[C@@H]1O
Readout name: Vd (L/kg)

Compound	Readout name	Quantitative result
CC(=O)N[C@H]1C(OC[C@H](NC(=O)[C@@H](NC(=O)[C@H](Cc2ccc(O)cc2)NC(=O)[C@@H](NC(=O)[C@H](CCC(N)=O)NC(=O)CN)[C@@H](C)OC2O[C@H](CO)[C@@H](O)[C@H](O)[C@H]2NC(C)=O)[C@@H](C)O)C(=O)NCC(=O)O)O[C@H](CO)[C@@H](O)[C@@H]1O (stereo partly shown) [SIPI-G9, GQT(Glc)YTS(Glc)G] (H-GQT(X1)YTS(X1)G-OH)	Vd	1.8

====

- Method notes: Plasma drug concentrations and pharmacokinetics after a single intravenous or subcutaneous injection of SIPI-G9 in SD rats
- Cond: male, SD, rat, plasma, sc, 5 mg/kg, Plasma G-9 concentration, Mean, SIPI-G9 5 mg/kg s.c., SD rats, 120 min, n=3
Peptide text beside a SMILES is read from it. * marks the point of attachment. X1 = CC(=O)N[C@H]1C(*)O[C@H](CO)[C@@H](O)[C@@H]1O

Molecule	level at 2 h [ng/mL]
CC(=O)N[C@H]1C(OC[C@H](NC(=O)[C@@H](NC(=O)[C@H](Cc2ccc(O)cc2)NC(=O)[C@@H](NC(=O)[C@H](CCC(N)=O)NC(=O)CN)[C@@H](C)OC2O[C@H](CO)[C@@H](O)[C@H](O)[C@H]2NC(C)=O)[C@@H](C)O)C(=O)NCC(=O)O)O[C@H](CO)[C@@H](O)[C@@H]1O (stereo partly shown) [SIPI-G9, GQT(Glc)YTS(Glc)G] (H-GQT(X1)YTS(X1)G-OH)	28.8
